Literature survey of IC50 (system: the protein given by its sequence).
Sequence of the target: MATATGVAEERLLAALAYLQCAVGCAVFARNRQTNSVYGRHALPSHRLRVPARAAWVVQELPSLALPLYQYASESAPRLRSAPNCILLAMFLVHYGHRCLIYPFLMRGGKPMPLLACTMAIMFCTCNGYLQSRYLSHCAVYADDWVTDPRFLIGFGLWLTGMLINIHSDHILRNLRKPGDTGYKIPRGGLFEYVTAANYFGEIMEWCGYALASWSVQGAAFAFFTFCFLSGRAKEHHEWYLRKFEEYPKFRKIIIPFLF
Reported metric: IC50

{"columns": ["Molecule", "Reported metric", "Reported"],
 "data": [
  ["CC(C)CCCC(C)[C@H]1CCC2C3CC=C4NC(=O)CC[C@]4(C)C3CC[C@@]21C (stereo partly specified)", "IC50", "19.1 nM"],
  ["CCN(CC)C(=O)[C@H]1CC[C@H]2[C@@H]3CC[C@H]4N(C)C(=O)CC[C@]4(C)[C@H]3CC[C@]12C", "IC50", "1.7 nM"],
  ["CN1C(=O)CC[C@@]2(C)C1=CCc1cc(Cl)ccc12", "IC50", "120 nM"],
  ["CCC[C@H]1CC2NC(=O)CC[C@]2(C)C2CC[C@]3(C)C(C(C)CCCC(C)C)CCC3C21 (stereo partly specified)", "IC50", "9.5 nM"],
  ["O=C(O)c1ccc2c(c1)CCc1cc(/C=C/c3ccccc3)ccc1-2", "IC50", "152 nM"],
  ["CC(C)CCCC(C)[C@H]1CCC2C3CCC4N(C)C(=O)CC[C@]4(C)C3CC[C@@]21C (stereo partly specified)", "IC50", "1.7 nM"]
]}
